Tested on: human red blood cells (RBCs)
Assay Info: Hemolysis assay
Format: cell-based
Recorded Conditions: red cells of human, 1 h, 1
Where a SMILES comes first, the peptide text is derived from it.
Percentage of hemolysis at 1 μg/mL reference
Just the number please, in %, no unit attached.

- Molecule: "CC[C@H](C)[C@H](NC(=O)[C@H](CCCCN)NC(=O)[C@H](CCCCN)NC(=O)[C@@H](NC(=O)[C@@H](NC(=O)[C@H](CC(=O)O)NC(=O)[C@H](Cc1ccccc1)NC(=O)[C@H](CC(C)C)NC(=O)CN)[C@@H](C)CC)[C@@H](C)CC)C(=O)N[C@@H](C)C(=O)N[C@@H](C)C(=O)N[C@@H](CO)C(=O)N[C@@H](Cc1ccccc1)C(N)=O [Peptide E11A] (H-GLFDIIKKIAASF-NH2)"
  Subject Of Test: "human red blood cells (RBCs)"
  Result Unit: "%"
  Percentage of hemolysis at 1 μg/mL: 0.1
- Molecule: "CC[C@H](C)[C@H](NC(=O)[C@H](CCCCN)NC(=O)[C@H](CCCCN)NC(=O)[C@H](C)NC(=O)[C@@H](NC(=O)[C@H](CC(=O)O)NC(=O)[C@H](Cc1ccccc1)NC(=O)[C@H](CC(C)C)NC(=O)CN)[C@@H](C)CC)C(=O)N[C@@H](C)C(=O)N[C@@H](CCC(=O)O)C(=O)N[C@@H](CO)C(=O)N[C@@H](Cc1ccccc1)C(N)=O [Peptide I6A] (H-GLFDIAKKIAESF-NH2)"
  Subject Of Test: "human red blood cells (RBCs)"
  Result Unit: "%"
  Percentage of hemolysis at 1 μg/mL: 0.4

Report Percentage of hemolysis at 1 μg/mL for CC[C@H](C)[C@H](NC(=O)[C@H](C)NC(=O)[C@H](Cc1ccccc1)NC(=O)[C@H](CC(C)C)NC(=O)CN)C(=O)N[C@H](C(=O)N[C@@H](CCCCN)C(=O)N[C@@H](CCCCN)C(=O)N[C@H](C(=O)N[C@@H](C)C(=O)N[C@@H](CCC(=O)O)C(=O)N[C@@H](CO)C(=O)N[C@@H](Cc1ccccc1)C(N)=O)[C@@H](C)CC)[C@@H](C)CC [Peptide D4A] (H-GLFAIIKKIAESF-NH2) tested on human red blood cells (RBCs).
0.2

* * *

Assay Info: in vitro
Assay type: in vitro ADME
Recorded Conditions: bovine, serum
Where a SMILES comes first, the peptide text is derived from it.
Recorded Endpoint: remaining at 6 h, 0.125 mg/mL (%)
Just the number please, in %, no unit attached.

Quick one: remaining at 6 h, 0.125 mg/mL of CC[C@H](C)[C@H](NC(=O)[C@H](CCCCN)NC(=O)[C@H](CCCCN)NC(=O)[C@H](C)NC(=O)[C@@H](NC(=O)[C@H](CC(=O)O)NC(=O)[C@H](Cc1ccccc1)NC(=O)[C@H](CC(C)C)NC(=O)CN)[C@@H](C)CC)C(=O)N[C@@H](C)C(=O)N[C@@H](CCC(=O)O)C(=O)N[C@@H](CO)C(=O)N[C@@H](Cc1ccccc1)C(N)=O [Peptide I6A] (H-GLFDIAKKIAESF-NH2) ?
29

* * *

Assay Info: in vitro
Format: in vitro ADME
Recorded Conditions: bovine, serum
Where a SMILES comes first, the peptide text is derived from it.
Recorded Endpoint: remaining at 6 h, 0.125 mg/mL (%)
Just the number please, in %, no unit attached.

The examples below pair each entry with its known result.
- Compound: "CC[C@H](C)[C@H](NC(=O)[C@H](CCCCN)NC(=O)[C@H](CCCCN)NC(=O)[C@@H](NC(=O)[C@@H](NC(=O)[C@H](CC(=O)O)NC(=O)[C@H](Cc1ccccc1)NC(=O)[C@H](CC(C)C)NC(=O)CN)[C@@H](C)CC)[C@@H](C)CC)C(=O)N[C@@H](C)C(=O)N[C@@H](C)C(=O)N[C@@H](CO)C(=O)N[C@@H](Cc1ccccc1)C(N)=O [Peptide E11A] (H-GLFDIIKKIAASF-NH2)"
  Result Unit: "%"
  remaining at 6 h, 0.125 mg/mL: 17
- Compound: "CC[C@H](C)[C@H](NC(=O)[C@H](CCCCN)NC(=O)[C@H](CCCCN)NC(=O)[C@@H](NC(=O)[C@@H](NC(=O)[C@H](CC(=O)O)NC(=O)[C@H](Cc1ccccc1)NC(=O)[C@H](C)NC(=O)CN)[C@@H](C)CC)[C@@H](C)CC)C(=O)N[C@@H](C)C(=O)N[C@@H](CCC(=O)O)C(=O)N[C@@H](CO)C(=O)N[C@@H](Cc1ccccc1)C(N)=O [Peptide L2A] (H-GAFDIIKKIAESF-NH2)"
  Result Unit: "%"
  remaining at 6 h, 0.125 mg/mL: 6
- Compound: "CC[C@H](C)[C@H](NC(=O)[C@H](C)NC(=O)[C@H](Cc1ccccc1)NC(=O)[C@H](CC(C)C)NC(=O)CN)C(=O)N[C@H](C(=O)N[C@@H](CCCCN)C(=O)N[C@@H](CCCCN)C(=O)N[C@H](C(=O)N[C@@H](C)C(=O)N[C@@H](CCC(=O)O)C(=O)N[C@@H](CO)C(=O)N[C@@H](Cc1ccccc1)C(N)=O)[C@@H](C)CC)[C@@H](C)CC [Peptide D4A] (H-GLFAIIKKIAESF-NH2)"
  Result Unit: "%"
  remaining at 6 h, 0.125 mg/mL: 44

Quick one: remaining at 6 h, 0.125 mg/mL of CC[C@H](C)[C@H](NC(=O)[C@H](CCCCN)NC(=O)[C@H](C)NC(=O)[C@@H](NC(=O)[C@@H](NC(=O)[C@H](CC(=O)O)NC(=O)[C@H](Cc1ccccc1)NC(=O)[C@H](CC(C)C)NC(=O)CN)[C@@H](C)CC)[C@@H](C)CC)C(=O)N[C@@H](C)C(=O)N[C@@H](CCC(=O)O)C(=O)N[C@@H](CO)C(=O)N[C@@H](Cc1ccccc1)C(N)=O [Peptide K7A] (H-GLFDIIAKIAESF-NH2) ?
59

What do we get for CC[C@H](C)[C@H](NC(=O)[C@H](C)NC(=O)[C@H](CCCCN)NC(=O)[C@@H](NC(=O)[C@@H](NC(=O)[C@H](CC(=O)O)NC(=O)[C@H](Cc1ccccc1)NC(=O)[C@H](CC(C)C)NC(=O)CN)[C@@H](C)CC)[C@@H](C)CC)C(=O)N[C@@H](C)C(=O)N[C@@H](CCC(=O)O)C(=O)N[C@@H](CO)C(=O)N[C@@H](Cc1ccccc1)C(N)=O [Peptide K8A] (H-GLFDIIKAIAESF-NH2) ?
36

* * *

Percentage of hemolysis at 32 μg/mL reference
Test system: human red blood cells (RBCs)
Assay Info: Hemolysis assay
Assay type: cell-based
Recorded Conditions: red cells of human, 1 h, 32
Where a SMILES comes first, the peptide text is derived from it.
Just the number please, in %, no unit attached.

- Compound: "CC[C@H](C)[C@H](NC(=O)[C@H](CCCCN)NC(=O)[C@H](CCCCN)NC(=O)[C@@H](NC(=O)[C@@H](NC(=O)[C@H](CC(=O)O)NC(=O)[C@H](Cc1ccccc1)NC(=O)[C@H](CC(C)C)NC(=O)CN)[C@@H](C)CC)[C@@H](C)CC)C(=O)N[C@@H](C)C(=O)N[C@@H](CCC(=O)O)C(=O)N[C@@H](C)C(=O)N[C@@H](Cc1ccccc1)C(N)=O [Peptide S12A] (H-GLFDIIKKIAEAF-NH2)"
  Observed Value: 6.5

Quick one: Percentage of hemolysis at 32 μg/mL of CC[C@H](C)[C@H](NC(=O)[C@H](C)NC(=O)[C@H](Cc1ccccc1)NC(=O)[C@H](CC(C)C)NC(=O)CN)C(=O)N[C@H](C(=O)N[C@@H](CCCCN)C(=O)N[C@@H](CCCCN)C(=O)N[C@H](C(=O)N[C@@H](C)C(=O)N[C@@H](CCC(=O)O)C(=O)N[C@@H](CO)C(=O)N[C@@H](Cc1ccccc1)C(N)=O)[C@@H](C)CC)[C@@H](C)CC [Peptide D4A] (H-GLFAIIKKIAESF-NH2) ?
1.5

* * *

MBEC, E. faecalis PCM 2673 reference
Test system: E. faecalis PCM 2673 biofilm
Format: cell-based, Enterococcus faecalis
Recorded Conditions: 24 h
Where a SMILES comes first, the peptide text is derived from it.

- Molecule: "CC[C@H](C)[C@H](NC(=O)[C@H](CCCCN)NC(=O)[C@H](CCCCN)NC(=O)[C@@H](NC(=O)[C@@H](NC(=O)[C@H](CC(=O)O)NC(=O)[C@H](Cc1ccccc1)NC(=O)[C@H](C)NC(=O)CN)[C@@H](C)CC)[C@@H](C)CC)C(=O)N[C@@H](C)C(=O)N[C@@H](CCC(=O)O)C(=O)N[C@@H](CO)C(=O)N[C@@H](Cc1ccccc1)C(N)=O [Peptide L2A] (H-GAFDIIKKIAESF-NH2)"
  MBEC, E. faecalis PCM 2673: "> 512 µg/mL"
- Molecule: "CC[C@H](C)[C@H](NC(=O)[C@H](C)NC(=O)[C@H](CC(=O)O)NC(=O)[C@H](Cc1ccccc1)NC(=O)[C@H](CC(C)C)NC(=O)CN)C(=O)N[C@@H](CCCCN)C(=O)N[C@@H](CCCCN)C(=O)N[C@H](C(=O)N[C@@H](C)C(=O)N[C@@H](CCC(=O)O)C(=O)N[C@@H](CO)C(=O)N[C@@H](Cc1ccccc1)C(N)=O)[C@@H](C)CC [Peptide I5A] (H-GLFDAIKKIAESF-NH2)"
  MBEC, E. faecalis PCM 2673: "> 512 µg/mL"

Proceeding to the next molecule to report its MBEC, E. faecalis PCM 2673.
Quick one: MBEC, E. faecalis PCM 2673 of CC[C@H](C)[C@H](NC(=O)[C@H](CCCCN)NC(=O)[C@H](CCCCN)NC(=O)[C@@H](NC(=O)[C@@H](NC(=O)[C@H](CC(=O)O)NC(=O)[C@H](C)NC(=O)[C@H](CC(C)C)NC(=O)CN)[C@@H](C)CC)[C@@H](C)CC)C(=O)N[C@@H](C)C(=O)N[C@@H](CCC(=O)O)C(=O)N[C@@H](CO)C(=O)N[C@@H](Cc1ccccc1)C(N)=O [Peptide F3A] (H-GLADIIKKIAESF-NH2) ?
> 512 µg/mL
